target: EP3 (Homo sapiens); experiment: EP3 functional assay
Sequence (P43115 whole entry): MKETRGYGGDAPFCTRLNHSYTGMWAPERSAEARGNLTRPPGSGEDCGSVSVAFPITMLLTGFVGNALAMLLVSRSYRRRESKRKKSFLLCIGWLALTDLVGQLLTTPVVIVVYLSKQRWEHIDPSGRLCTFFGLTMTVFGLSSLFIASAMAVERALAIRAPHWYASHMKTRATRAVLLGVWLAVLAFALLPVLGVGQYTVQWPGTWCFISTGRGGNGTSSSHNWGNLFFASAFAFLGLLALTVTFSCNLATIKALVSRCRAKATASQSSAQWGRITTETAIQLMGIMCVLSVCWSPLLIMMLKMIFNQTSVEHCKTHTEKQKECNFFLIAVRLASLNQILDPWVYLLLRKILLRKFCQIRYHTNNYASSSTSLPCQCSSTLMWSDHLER
PROPERTY_MEASURED: EC50 (nM)

INSERT INTO results (structure_notation, system_name, value) VALUES
  ('C[C@@H](O)CCC[C@H](O)/C=C/[C@@H]1[C@@H](C/C=C\CCCC(=O)O)[C@H](Cl)C[C@H]1O', 'EP3 (Homo sapiens)', 6);

====

biological target: EP4 (Homo sapiens, UniProt P35408); assay: EP4 binding assay
Sequence (P35408 whole entry): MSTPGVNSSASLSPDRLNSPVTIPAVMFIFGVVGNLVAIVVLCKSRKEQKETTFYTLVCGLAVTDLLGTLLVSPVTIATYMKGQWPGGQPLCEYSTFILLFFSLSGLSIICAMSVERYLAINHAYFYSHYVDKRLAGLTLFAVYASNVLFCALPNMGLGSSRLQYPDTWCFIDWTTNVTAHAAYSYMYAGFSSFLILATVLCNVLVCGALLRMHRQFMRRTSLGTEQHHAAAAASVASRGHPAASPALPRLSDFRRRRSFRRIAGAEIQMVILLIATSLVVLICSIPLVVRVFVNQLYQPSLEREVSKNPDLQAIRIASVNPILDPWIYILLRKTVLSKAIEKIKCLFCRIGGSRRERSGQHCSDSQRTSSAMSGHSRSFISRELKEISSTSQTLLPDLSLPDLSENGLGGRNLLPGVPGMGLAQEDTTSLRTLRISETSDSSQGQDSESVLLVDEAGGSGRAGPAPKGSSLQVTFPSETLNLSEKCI
pEC50: −log10 of the molar value.
PROPERTY_MEASURED: pEC50

INSERT INTO results (structure_notation, property_measured, value) VALUES
  ('C[C@@H](O)CCC[C@H](O)/C=C/[C@@H]1[C@@H](C/C=C\CCCC(=O)O)[C@H](Cl)C[C@H]1O', 'pEC50', 6.05);

====

Molecular target: EP4 (Homo sapiens, UniProt P35408)
Experiment: EP4 Ca2+ signal assay
Format: cell-based
Text: U.S. patent application Ser. No. 11/553,143, filed on Oct. 26, 2006, incorporated by reference herein, describes the methods used to obtain the in vitro data in Tables 1 and 2 below.
pEC50: −log10 of the molar value.
Attribute: pEC50
PROPERTY_MEASURED: pEC50

INSERT INTO assay_data (structure_notation, value) VALUES
  ('C[C@@H](O)CCC[C@H](O)/C=C/[C@@H]1[C@@H](C/C=C\CCCC(=O)O)[C@H](Cl)C[C@H]1O', 7.34),
  ('C[C@@H](O)CCC[C@H](O)/C=C/[C@@H]1[C@@H](CCCCCCC(=O)O)[C@H](Cl)C[C@H]1O', 6.14);

====

target: UniProtKB P43116; experiment: EP2 cAMP assay; type: cell-based
pEC50: −log10 of the molar value.
Attribute: pEC50
PROPERTY_MEASURED: pEC50

INSERT INTO results (structure_notation, system_name, value) VALUES
  ('C[C@@H](O)CCC[C@H](O)/C=C/[C@@H]1[C@@H](C/C=C\CCCC(=O)O)[C@H](Cl)C[C@H]1O', 'UniProtKB P43116', 10.52),
  ('C[C@@H](O)CCC[C@H](O)/C=C/[C@@H]1[C@@H](CCCCCCC(=O)O)[C@H](Cl)C[C@H]1O', 'UniProtKB P43116', 8.83);

====

target: EP2 (Homo sapiens); experiment: EP2 binding assay
Sequence (P43116 whole entry): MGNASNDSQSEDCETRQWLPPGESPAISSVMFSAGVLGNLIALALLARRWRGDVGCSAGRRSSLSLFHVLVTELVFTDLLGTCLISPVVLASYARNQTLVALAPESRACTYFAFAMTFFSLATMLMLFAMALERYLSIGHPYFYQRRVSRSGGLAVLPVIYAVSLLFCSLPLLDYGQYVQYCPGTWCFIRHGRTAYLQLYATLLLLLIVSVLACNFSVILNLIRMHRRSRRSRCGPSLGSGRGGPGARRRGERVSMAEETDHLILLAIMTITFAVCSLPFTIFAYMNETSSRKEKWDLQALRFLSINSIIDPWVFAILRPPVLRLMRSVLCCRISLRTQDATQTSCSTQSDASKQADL
PROPERTY_MEASURED: EC50 (µM)

INSERT INTO assay_data (structure_notation, system_name, scale_unit, value) VALUES
  ('C[C@@H](O)CCC[C@H](O)/C=C/[C@@H]1[C@@H](C/C=C\CCCC(=O)O)[C@H](Cl)C[C@H]1O', 'EP2 (Homo sapiens)', 'µM', 0.025),
  ('C[C@@H](O)CCC[C@H](O)/C=C/[C@@H]1[C@@H](CCCCCCC(=O)O)[C@H](Cl)C[C@H]1O', 'EP2 (Homo sapiens)', 'µM', 1.22);
